Assay endpoint: melting point

Some solved entries appear below for comparison.
>  <Compound>
CC1(C)CC(=O)CC(C)(C)c2cc(Br)ccc21

>  <Observed measurement>
104 to 105 °C

$$$$
>  <Compound>
C1=C(c2c[nH]c3ccccc23)CCN(CC2COc3ccc4ncncc4c3O2)C1 (centres undefined)

>  <Observed measurement>
204 to 207 °C

$$$$
>  <Compound>
C1=CCC(Cc2ccc(-c3ccccc3)cc2)C1

>  <Observed measurement>
47 to 48 °C

$$$$
>  <Compound>
CCCCc1nc(O)cc(CCl)n1

>  <Observed measurement>
102 to 104 °C

$$$$
>  <Compound>
Cc1ccccc1OS(=O)(=O)c1ccc(N2CCN(C)C2=O)cc1

>  <Observed measurement>
157 to 158 °C

$$$$
>  <Compound>
O=C(NCc1cccc(OCCOc2nc[nH]n2)c1)c1nc2ccc(F)c(F)c2c(=O)[nH]1

>  <Observed measurement>
205 to 207 °C

$$$$
>  <Compound>
COc1ccc(OC)c(Cc2n[nH]c3c2c(=O)n(-c2ccccc2)c2ncccc32)c1

>  <Observed measurement>
248 to 250 °C

$$$$
>  <Compound>
FC(F)(F)COc1ccc(-c2nc3n(c2-c2ccc(OCC(F)(F)F)cc2)CCS3)cc1

>  <Observed measurement>
163 to 164 °C

$$$$
>  <Compound>
CP(=O)(O)CNC(=O)OCc1ccccc1

>  <Observed measurement>
118 to 119 °C

$$$$
>  <Compound>
CCCn1nc(C2CC2)c(C(=O)OCC)c1Cc1ccc(-c2ccccc2S(=O)(=O)NC(C)(C)C)cc1

>  <Observed measurement>
165 to 168 °C

$$$$

Would you mind listing melting point for each of the following compounds?
1. Oc1ccc(OCc2ccccc2)c2ccccc12
2. C=CCOc1ccc(Cl)cc1NC(=O)Cc1ccc(OC)c(OC2CCCC2)c1
3. NC(=O)C[C@H](NS(=O)(=O)c1ccc2c(c1)Sc1ccccc1O2)C(=O)O

1. 118 to 119 °C
2. 75 to 76.5 °C
3. 165 to 175 °C

Would you mind listing melting point for each of the following compounds?
1. CC(C)(C)c1cc2c(c(C(C)(C)C)c1)OC(=O)C2c1ccc(OCC(=O)O)cc1 (centres undefined)
2. CS(=O)c1nnc2c(=O)c3ccccc3ccn12 (centres undefined)
3. COc1ccc2cccc(C(O)CNC(C)=O)c2c1 (centres undefined)

158 to 162 °C
208 to 211 °C
173 to 175 °C

Would you mind listing melting point for each of the following compounds?
1. CCOC(=O)C1=C(C(F)(F)F)NC2=C(C(=O)CCC2)C1c1nccn1C (centres undefined)
2. COC(=O)COc1ccc(C(=O)CNC=O)cc1
3. Cc1nnc2c(-c3cccnc3)cccn12
4. O=CN(O)C(CC1CCC2(CC1)OCCO2)CS(=O)(=O)c1ccc(Oc2ccc(OC(F)(F)F)cc2)cc1 (centres undefined)
5. Cc1c(N2CCC(N(C)Cc3ccccc3)C2)c(F)cc2c(=O)c(C(=O)O)cn(C3CC3)c12 (centres undefined)
6. CC1(CCS)C(=O)N2CC=CC(C(=O)O)N2C1=O (centres undefined)

1: 197 to 198 °C; 2: 116 °C; 3: 112 to 115 °C; 4: 140 to 141 °C; 5: 161 °C; 6: 113 to 114 °C

Would you mind listing melting point for each of the following compounds?
1. CN(Cc1ccc(N)cc1)C1CCSCC1
2. Cc1cccc(/C=C/c2nc(COc3ccc(CCCCn4ccnc4CCO)cc3)co2)c1
3. Nc1cc(Cl)cc(Cl)c1C(=O)NCc1cccc(Cl)c1
4. Cc1nc[nH]c1CSCCNc1nc(C)c(Cc2ccccc2)c(=O)[nH]1
5. Cc1cc(O)c(O)cc1C
6. CC(=O)Nc1c(-c2ccccc2)c(=O)[nH]c2cc(Cl)ccc12

1. 88 to 89 °C
2. 109 to 111 °C
3. 167 to 171 °C
4. 140 to 142 °C
5. 71 to 72 °C
6. 275 to 277 °C

Data origin, for the record: a melting point compilation (Tetko et al.; mined from patent text by program, amines drawn as free bases though some values may be those of a salt)
